Every entry's value here was drawn from patent EP0212822A1.

Experiment: Solubility in methanol water mixtures (HPLC and UV absorption)
Type: physicochemical
Settings: organic solvent or mixture; 50 % Methanol in water
ATTRIBUTE MEASURED: solubility at 4 h (µg/mL)
One number for each entry, in µg/mL.

// query solubility at 4 h value for entry CC(C)(C)[C@@H](O)[C@@H](Cc1ccc(Cl)cc1)n1cncn1 (racemic)
1200

====

Assay: Solubility in methanol water mixtures (HPLC and UV absorption)
Assay type: physicochemical
Conditions: in water alone
ATTRIBUTE MEASURED: solubility at 4 h (µg/mL)
Numbers only, in µg/mL.

// query solubility at 4 h value for entry CC(C)(C)[C@@H](O)[C@@H](Cc1ccc(Cl)cc1)n1cncn1 (racemic)
35
